molecular target: MAPK14 (human) (UniProt Q16539); experiment: radiometric filter-binding kinase assay; details: compound 0.1 µM
Sequence (Q16539 whole entry, looked up): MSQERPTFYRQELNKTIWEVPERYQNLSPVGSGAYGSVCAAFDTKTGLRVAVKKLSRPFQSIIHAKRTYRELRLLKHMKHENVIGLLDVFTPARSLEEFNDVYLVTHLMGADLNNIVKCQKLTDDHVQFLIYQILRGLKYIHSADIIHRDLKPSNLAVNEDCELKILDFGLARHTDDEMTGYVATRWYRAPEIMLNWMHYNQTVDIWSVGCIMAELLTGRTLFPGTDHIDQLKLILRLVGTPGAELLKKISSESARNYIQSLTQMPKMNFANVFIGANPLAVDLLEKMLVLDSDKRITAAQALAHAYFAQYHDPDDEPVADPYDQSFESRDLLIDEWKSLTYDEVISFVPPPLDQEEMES
reported endpoint: residual activity (%)
Give bare numbers, in %.

compound=Cc1ccc(Sc2cnc(Nc3cccc(Br)n3)s2)cc1C(=O)N1CCN(C(=O)CN)CC1 endpoint_result=101
compound="COc1cc(O)c2c(c1)[C@H]1OC1C[C@H](O)[C@H](O)C(=O)/C=C\\C[C@H](C)OC2=O (some centres undefined)" endpoint_result=105
compound=CN1CCN(CCOc2cc(OC3CCOCC3)c3c(Nc4c(Cl)ccc5c4OCO5)ncnc3c2)CC1 endpoint_result=108
compound=CCCCCc1ccc(/C=C/[C@H](O)[C@@H](CO)NC)cc1 endpoint_result=95
compound=O=C(Nc1nc2cc(C(F)(F)F)cc(NC3CC3)n2n1)c1cccnc1 endpoint_result=121

Hey, quick one: what's residual activity for each of these?
1. CNC(=O)C1[C@H]2O[C@@](C)([C@@H]1N)n1c3ccccc3c3c4c(c5c6ccccc6n2c5c31)C(=O)NC4 (some centres undefined)
2. NC1(c2ccc(-c3nc4ccn5c(=O)[nH]nc5c4cc3-c3ccccc3)cc2)CCC1
3. c1ccc2c(-c3cnn4cc(-c5ccc(N6CCNCC6)cc5)cnc34)ccnc2c1
4. COc1ccc2c(c1)c1c3c(c4c5ccccc5n(C)c4c1n2CC(O)CN(C)C)C(=O)NC3=O (centres undefined)

1. 109
2. 110
3. 78
4. 107

---

I'd appreciate it if you could supply residual activity values for the items below.
target: NTRK1 (human) (UniProt P04629); assay: radiometric filter-binding kinase assay; details: compound 10.0 µM
Sequence (P04629 whole entry, looked up): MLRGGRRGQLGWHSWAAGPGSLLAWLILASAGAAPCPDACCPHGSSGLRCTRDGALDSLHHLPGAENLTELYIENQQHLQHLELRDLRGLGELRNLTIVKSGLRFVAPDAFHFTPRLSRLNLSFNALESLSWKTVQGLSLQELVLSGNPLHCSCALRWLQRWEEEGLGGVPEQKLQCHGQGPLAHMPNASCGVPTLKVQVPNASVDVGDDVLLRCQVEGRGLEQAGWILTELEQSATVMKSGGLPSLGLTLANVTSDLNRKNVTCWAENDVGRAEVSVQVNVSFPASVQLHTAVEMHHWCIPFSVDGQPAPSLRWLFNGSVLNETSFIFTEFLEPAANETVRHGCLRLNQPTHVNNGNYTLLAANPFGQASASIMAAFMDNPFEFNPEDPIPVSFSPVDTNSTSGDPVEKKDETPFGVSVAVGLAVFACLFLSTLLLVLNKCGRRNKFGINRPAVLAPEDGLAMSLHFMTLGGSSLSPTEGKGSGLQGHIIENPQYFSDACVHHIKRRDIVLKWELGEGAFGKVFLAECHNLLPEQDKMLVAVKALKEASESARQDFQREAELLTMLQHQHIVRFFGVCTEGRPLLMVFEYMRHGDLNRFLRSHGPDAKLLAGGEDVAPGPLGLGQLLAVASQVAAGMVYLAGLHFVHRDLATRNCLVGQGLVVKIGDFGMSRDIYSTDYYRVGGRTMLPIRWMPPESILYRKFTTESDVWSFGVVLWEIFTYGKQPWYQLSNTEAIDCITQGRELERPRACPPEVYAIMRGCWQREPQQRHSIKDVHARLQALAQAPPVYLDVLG
A complete answer gives the number followed by the unit.

Solved cases below.
chemical_structure=NC(=O)c1cc(-c2ccnc(NC3CCCCC3)c2)nc(N2CCNCC2)c1 target_desc="NTRK1 (human) (UniProt P04629)" endpoint_result=71%
chemical_structure=O=C(NOC[C@H](O)CO)c1ccc(F)c(F)c1Nc1ccc(I)cc1Cl target_desc="NTRK1 (human) (UniProt P04629)" endpoint_result=75%
chemical_structure=COc1cc(C(=O)N2CCOCC2)c(F)cc1Nc1ncc(C(F)(F)F)c(NC2CC2)n1 target_desc="NTRK1 (human) (UniProt P04629)" endpoint_result=54%

Hey, quick one: what's residual activity for each of these?
1. NC(=O)c1c(NC(=O)C2CC2)sc2c1CCCC2
2. Cc1ccc2c(c1)C(=O)[C@@]1(O)CCN(c3ccccc3)C1=N2

1: 30%; 2: 103%

---

target: HIPK1 (human) (UniProt Q86Z02); test: radiometric filter-binding kinase assay; conditions: compound 0.1 µM
Sequence (Q86Z02 whole entry, looked up): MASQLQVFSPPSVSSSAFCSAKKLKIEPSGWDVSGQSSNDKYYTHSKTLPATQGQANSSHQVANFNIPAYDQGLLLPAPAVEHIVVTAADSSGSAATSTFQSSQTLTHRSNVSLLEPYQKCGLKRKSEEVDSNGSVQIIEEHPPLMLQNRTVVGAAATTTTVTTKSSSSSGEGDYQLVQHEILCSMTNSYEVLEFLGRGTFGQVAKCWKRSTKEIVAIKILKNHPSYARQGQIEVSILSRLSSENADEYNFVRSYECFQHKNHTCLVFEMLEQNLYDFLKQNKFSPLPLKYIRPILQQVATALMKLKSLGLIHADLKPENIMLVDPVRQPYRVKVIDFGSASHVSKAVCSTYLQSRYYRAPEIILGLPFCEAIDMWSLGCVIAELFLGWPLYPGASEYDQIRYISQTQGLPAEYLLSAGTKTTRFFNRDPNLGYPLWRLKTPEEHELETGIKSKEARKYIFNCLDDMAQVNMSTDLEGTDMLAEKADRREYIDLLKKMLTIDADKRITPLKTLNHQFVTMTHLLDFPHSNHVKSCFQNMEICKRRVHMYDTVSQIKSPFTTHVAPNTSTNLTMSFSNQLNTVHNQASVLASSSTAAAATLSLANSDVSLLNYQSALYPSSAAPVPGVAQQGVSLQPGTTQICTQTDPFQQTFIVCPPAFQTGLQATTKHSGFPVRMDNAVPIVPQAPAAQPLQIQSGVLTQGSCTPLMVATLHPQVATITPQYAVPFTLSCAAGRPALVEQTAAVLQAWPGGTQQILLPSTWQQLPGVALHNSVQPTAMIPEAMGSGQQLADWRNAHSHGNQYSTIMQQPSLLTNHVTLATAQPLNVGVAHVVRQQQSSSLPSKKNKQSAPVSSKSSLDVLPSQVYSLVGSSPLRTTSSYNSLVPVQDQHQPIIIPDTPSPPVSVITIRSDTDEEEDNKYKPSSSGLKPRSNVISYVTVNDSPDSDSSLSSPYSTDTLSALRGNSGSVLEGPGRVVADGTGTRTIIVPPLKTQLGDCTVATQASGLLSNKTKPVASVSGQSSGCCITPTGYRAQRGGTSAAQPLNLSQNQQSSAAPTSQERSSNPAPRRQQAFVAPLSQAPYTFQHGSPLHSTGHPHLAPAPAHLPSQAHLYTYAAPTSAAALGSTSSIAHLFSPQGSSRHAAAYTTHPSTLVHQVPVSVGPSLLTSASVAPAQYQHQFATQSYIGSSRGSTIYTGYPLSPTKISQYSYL
I'd appreciate it if you could supply residual activity values for the items below.

chemical_structure=CN(C)C/C=C/C(=O)Nc1cccc(C(=O)Nc2ccc(Nc3nccc(-c4cccnc4)n3)cc2)c1 endpoint_result=86%
chemical_structure=O=C(NCCCNc1nc(Nc2cccc(CN3CCOCC3)c2)ncc1C1CC1)C1CCC1 endpoint_result=96%
chemical_structure=Cc1cccc(-c2nn(C(=S)Nc3ccccc3)cc2-c2ccnc3ccccc23)n1 endpoint_result=96%
chemical_structure=CCCCCc1ccc(/C=C/[C@H](O)[C@@H](CO)NC)cc1 endpoint_result=92%

Here's the next entry for you.
Provide HIPK1 (human) (UniProt Q86Z02) residual activity reading for C=CC(=O)N1CCC[C@@H](n2nc(-c3ccc(Oc4ccccc4)cc3)c3c(N)ncnc32)C1 .
75%

---

target: SRC (human); experiment: radiometric filter-binding kinase assay; settings: compound 1.0 µM
Mark YES only when residual activity stays strictly below 40%. Values equal to the cut-off are NO.

chemical_structure=NC(=O)c1c(NC(=O)C2CC2)sc2c1CCCC2 target_desc="SRC (human)" assigned_category=NO
chemical_structure=Cc1ccc(=O)n(-c2ccccc2)c1 target_desc="SRC (human)" assigned_category=NO
chemical_structure=COc1cc(O)c2c(c1)/C=C/C[C@H](O)[C@H](O)C(=O)/C=C\C[C@H](C)OC2=O target_desc="SRC (human)" assigned_category=NO
chemical_structure=NC(=O)Nc1ccc2c(c1)/C(=C/c1cc(-c3cccnc3)c[nH]1)C(=O)N2 target_desc="SRC (human)" assigned_category=YES
chemical_structure=Cc1cccc(Nc2nn(C)c3ncnc(N)c23)c1 target_desc="SRC (human)" assigned_category=NO

Dear colleague, could you confirm whether residual activity of COc1ccc(N(C(=O)Nc2c(C)cccc2C)c2cc(Nc3ccc(N4CCN(C)CC4)cc3)ncn2)c(OC)c1 falls below 40%? Thanks.
YES

Dear colleague, could you confirm whether residual activity of CCNc1nc(Nc2cc(F)c(C(=O)N3CCOCC3)cc2OC)ncc1C(F)(F)F falls below 40%? Thanks.
NO

---

molecular target: MARK1 (human) (UniProt Q9P0L2); assay: radiometric filter-binding kinase assay; conditions: compound 10.0 µM
Sequence (Q9P0L2 whole entry, looked up): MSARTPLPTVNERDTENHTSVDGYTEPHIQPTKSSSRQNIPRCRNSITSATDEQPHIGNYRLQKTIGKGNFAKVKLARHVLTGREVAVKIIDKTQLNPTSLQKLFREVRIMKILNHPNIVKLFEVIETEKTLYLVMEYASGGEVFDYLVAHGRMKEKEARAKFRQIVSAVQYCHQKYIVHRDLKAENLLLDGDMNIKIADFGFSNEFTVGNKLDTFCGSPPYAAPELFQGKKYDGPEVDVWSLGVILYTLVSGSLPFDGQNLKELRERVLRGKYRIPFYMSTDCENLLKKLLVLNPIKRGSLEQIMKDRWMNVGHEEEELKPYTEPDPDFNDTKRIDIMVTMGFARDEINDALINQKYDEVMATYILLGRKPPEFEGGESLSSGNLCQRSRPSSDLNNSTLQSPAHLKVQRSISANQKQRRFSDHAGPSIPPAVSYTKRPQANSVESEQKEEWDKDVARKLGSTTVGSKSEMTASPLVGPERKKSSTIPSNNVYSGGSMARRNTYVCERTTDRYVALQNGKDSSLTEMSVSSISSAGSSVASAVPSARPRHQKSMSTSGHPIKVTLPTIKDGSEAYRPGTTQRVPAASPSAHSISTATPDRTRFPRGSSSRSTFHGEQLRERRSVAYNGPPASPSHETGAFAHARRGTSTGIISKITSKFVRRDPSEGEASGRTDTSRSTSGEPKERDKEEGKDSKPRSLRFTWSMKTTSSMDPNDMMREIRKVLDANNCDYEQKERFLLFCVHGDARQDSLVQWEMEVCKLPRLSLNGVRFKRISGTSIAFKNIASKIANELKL
I'd appreciate it if you could supply residual activity values for the items below.
Answers are plain numbers, in %.

Solved cases below.
molecule=NC(=O)c1c(NC(=O)C2CC2)sc2c1CCCC2 scale_unit=% endpoint_result=67
molecule=FC(F)(F)c1ccc(-c2ccc(Oc3cncc4sc(-c5nn[nH]n5)cc34)cc2)cc1 scale_unit=% endpoint_result=72
molecule=O=S(=O)(c1ccc(F)c2nonc12)N1CCN(c2ncc(C(F)(F)F)cc2Cl)CC1 scale_unit=% endpoint_result=109
molecule=CCCC(CCC)C(=O)O scale_unit=% endpoint_result=97
molecule=CCOC(=O)c1ccc(N2NC(=O)/C(=C/c3ccc([N+](=O)[O-])o3)C2=O)cc1 scale_unit=% endpoint_result=62

Hey, quick one: what's residual activity for each of these?
1. NCC(=O)Nc1ccc(-n2nc(C(F)(F)F)cc2-c2ccc3c(ccc4ccccc43)c2)cc1
2. Nc1cccc2c1CN(C1CCC(=O)NC1=O)C2=O (stereo unspecified)
3. Oc1ccc(/C=C/c2cc(O)cc(O)c2)cc1
4. CCn1c(-c2nonc2N)nc2cncc(CNC3CCNCC3)c21
5. NC(=O)c1cc(-c2ccnc(NC3CCCCC3)c2)nc(N2CCNCC2)c1
6. CC(C)(C#N)c1ccc(N2C(=O)OCc3cnc4ccc(-c5cnc6ccccc6c5)cc4c32)cc1
7. N#Cc1c(O)c2c(-c3ccc(-c4ccccc4O)cc3)csc2[nH]c1=O
8. CCCCCc1ccc(/C=C/[C@H](O)[C@@H](CO)NC)cc1

1. 79
2. 100
3. 96
4. 71
5. 76
6. 114
7. 59
8. 104

Hey, quick one: what's residual activity for each of these?
1. C=CC(=O)N1CCC[C@@H](n2nc(-c3ccc(Oc4ccccc4)cc3)c3c(N)ncnc32)C1
2. NC(=O)c1ccc(-c2ccc(Oc3cncc4sc(-c5nn[nH]n5)cc34)cc2)cc1
3. O=C(NOC[C@H](O)CO)c1ccc(F)c(F)c1Nc1ccc(I)cc1Cl
4. CNc1nc(-c2ccc3c(N)n[nH]c3c2)cc(N2C[C@@H](C(=O)NC3CCCCC3)CC[C@H]2C)n1

1: 88; 2: 78; 3: 85; 4: 84

Hey, quick one: what's residual activity for each of these?
1. Cc1ccc(=O)n(-c2ccccc2)c1
2. c1ccc2c(-c3cnn4cc(-c5ccc(N6CCNCC6)cc5)cnc34)ccnc2c1
3. Cc1ccc(Sc2cnc(Nc3cccc(Br)n3)s2)cc1C(=O)N1CCN(C(=O)CN)CC1
4. Cc1ccc(-c2ccc3c(ccc4sc5c(c43)NC[C@@H](C)NC5=O)n2)cn1

[98, 14, 58, 93]

---

I'd appreciate it if you could supply residual activity values for the items below.
target: CaMK1 (human) (UniProt Q14012); assay: radiometric filter-binding kinase assay; conditions: compound 0.01 µM
Sequence (Q14012 whole entry, looked up): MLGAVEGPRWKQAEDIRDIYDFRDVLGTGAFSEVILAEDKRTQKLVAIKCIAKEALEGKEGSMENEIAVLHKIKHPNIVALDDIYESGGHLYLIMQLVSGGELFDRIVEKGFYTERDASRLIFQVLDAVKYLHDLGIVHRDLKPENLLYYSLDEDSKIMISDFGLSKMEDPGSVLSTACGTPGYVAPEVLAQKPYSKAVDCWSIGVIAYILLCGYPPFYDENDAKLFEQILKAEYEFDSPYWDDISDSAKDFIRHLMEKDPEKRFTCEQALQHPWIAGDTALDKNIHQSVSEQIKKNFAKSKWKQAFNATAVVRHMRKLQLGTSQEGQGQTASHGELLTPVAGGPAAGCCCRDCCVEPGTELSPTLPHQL
One number for each entry, in %.

Solved cases below.
molecule="CNC(=O)C1[C@H]2O[C@@](C)([C@@H]1N)n1c3ccccc3c3c4c(c5c6ccccc6n2c5c31)C(=O)NC4 (stereo partly specified)" reported_endpoint="residual activity" endpoint_result=97
molecule=CNc1nc(-c2ccc3c(N)n[nH]c3c2)cc(N2C[C@@H](C(=O)NC3CCCCC3)CC[C@H]2C)n1 reported_endpoint="residual activity" endpoint_result=108
molecule=C/C(=C1/C(=O)Nc2ccc(NC(N)=O)cc21)c1ccc[nH]1 reported_endpoint="residual activity" endpoint_result=116
molecule=COc1ccc(N(C(=O)Nc2c(C)cccc2C)c2cc(Nc3ccc(N4CCN(C)CC4)cc3)ncn2)c(OC)c1 reported_endpoint="residual activity" endpoint_result=97
molecule=O=C(Nc1nc2cc(C(F)(F)F)cc(NC3CC3)n2n1)c1cccnc1 reported_endpoint="residual activity" endpoint_result=116

Here's the next entry for you.
Complete the entry with residual activity for COc1cc(O)c2c(c1)[C@H]1OC1C[C@H](O)[C@H](O)C(=O)/C=C\C[C@H](C)OC2=O (stereo partly specified)
96

---

I'd appreciate it if you could supply residual activity values for the items below.
biological target: INSR (human) (UniProt P06213); assay: radiometric filter-binding kinase assay; settings: compound 1.0 µM
Sequence (P06213 whole entry, looked up): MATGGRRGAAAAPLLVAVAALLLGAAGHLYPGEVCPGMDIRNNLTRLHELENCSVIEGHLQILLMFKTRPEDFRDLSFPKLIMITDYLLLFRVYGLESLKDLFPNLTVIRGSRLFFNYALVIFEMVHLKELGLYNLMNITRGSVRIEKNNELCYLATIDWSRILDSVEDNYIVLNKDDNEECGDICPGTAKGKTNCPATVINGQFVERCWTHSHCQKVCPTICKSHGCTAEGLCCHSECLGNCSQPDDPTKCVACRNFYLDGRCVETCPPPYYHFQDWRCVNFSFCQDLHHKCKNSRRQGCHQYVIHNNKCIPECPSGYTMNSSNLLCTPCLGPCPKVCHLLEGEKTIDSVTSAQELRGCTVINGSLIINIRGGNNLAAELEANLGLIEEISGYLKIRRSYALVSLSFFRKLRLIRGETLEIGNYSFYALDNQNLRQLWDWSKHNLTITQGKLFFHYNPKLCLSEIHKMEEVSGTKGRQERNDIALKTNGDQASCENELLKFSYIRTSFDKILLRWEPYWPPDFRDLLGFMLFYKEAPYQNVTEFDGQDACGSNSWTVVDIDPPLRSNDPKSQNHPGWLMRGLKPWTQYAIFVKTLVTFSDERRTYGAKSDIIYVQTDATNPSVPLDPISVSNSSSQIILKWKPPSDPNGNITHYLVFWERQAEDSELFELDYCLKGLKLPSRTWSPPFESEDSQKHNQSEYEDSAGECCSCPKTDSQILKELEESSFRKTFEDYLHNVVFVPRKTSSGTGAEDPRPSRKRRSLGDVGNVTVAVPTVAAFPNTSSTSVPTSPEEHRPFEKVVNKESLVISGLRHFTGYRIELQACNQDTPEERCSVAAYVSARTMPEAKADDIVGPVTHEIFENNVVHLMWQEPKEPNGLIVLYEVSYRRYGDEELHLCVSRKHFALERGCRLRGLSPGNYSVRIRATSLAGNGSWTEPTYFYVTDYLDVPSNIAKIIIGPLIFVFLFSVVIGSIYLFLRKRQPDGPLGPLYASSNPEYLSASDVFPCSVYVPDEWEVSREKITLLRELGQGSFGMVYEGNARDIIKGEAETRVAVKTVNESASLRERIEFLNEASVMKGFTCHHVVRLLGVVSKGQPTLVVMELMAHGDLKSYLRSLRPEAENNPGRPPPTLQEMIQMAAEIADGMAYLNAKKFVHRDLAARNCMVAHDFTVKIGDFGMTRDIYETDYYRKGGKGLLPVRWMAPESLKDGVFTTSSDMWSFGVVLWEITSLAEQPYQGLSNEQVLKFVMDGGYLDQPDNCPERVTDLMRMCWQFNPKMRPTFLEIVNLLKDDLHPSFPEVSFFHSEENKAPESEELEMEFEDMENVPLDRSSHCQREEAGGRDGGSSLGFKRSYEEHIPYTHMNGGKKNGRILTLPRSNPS
Give bare numbers, in %.

chemical_structure=CC(C)(C#N)c1ccc(N2C(=O)OCc3cnc4ccc(-c5cnc6ccccc6c5)cc4c32)cc1 reported_endpoint="residual activity" endpoint_result=96
chemical_structure=COc1cc(C(=O)N2CCOCC2)c(F)cc1Nc1ncc(C(F)(F)F)c(NC2CC2)n1 reported_endpoint="residual activity" endpoint_result=50
chemical_structure=FC(F)(F)c1ccc(-c2ccc(Oc3cncc4sc(-c5nn[nH]n5)cc34)cc2)cc1 reported_endpoint="residual activity" endpoint_result=100
chemical_structure=CCc1cncnc1N1CCN(Cc2nc3cc(C(F)(F)F)ccc3[nH]2)CC1 reported_endpoint="residual activity" endpoint_result=95

Provide INSR (human) (UniProt P06213) residual activity reading for NC(=O)c1cc(-c2ccnc(NC3CCCCC3)c2)nc(N2CCNCC2)c1 .
86
